# System: LOC_OS05G30820-cb001
# assay.info: thermal shift delta Tm vs DMSO control; higher = stronger stabilization (binding);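 note: purified Escherichia coli-expressed rice kinase domain construct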
# test.parameters: 12.5 µM; protein concentration 2 µM
Where a name gives a salt, the structure may show the parent alone.
# Lookup of reported thermal shift delta Tm keyed by entry

{"compound": "CCc1ccc(/C=C2/SC(=S)NC2=O)cc1", "thermal shift delta Tm, °C": 0.82}
{"compound": "O=C(Nc1ccccc1C(=O)NC1CCCCNC1=O)c1cc2ccccc2s1 (stereo unspecified)", "thermal shift delta Tm, °C": 0.1}
{"compound": "N=C(N)NC(=N)NCCc1ccccc1 [Phenformin HCl]", "thermal shift delta Tm, °C": 0.48}
{"compound": "CCN(CC)CCCC(C)Nc1ccnc2cc(Cl)ccc12 (stereo unspecified) [Chloroquine Phosphate]", "thermal shift delta Tm, °C": 0.51}
{"compound": "Nc1nc(N)c(N=O)c(OCC2CCCCC2)n1", "thermal shift delta Tm, °C": 0.8}
{"compound": "C#Cc1cccc(Nc2ncnc3cc(OC)c(OCCCCCCC(=O)NO)cc23)c1", "thermal shift delta Tm, °C": 0.58}

----------
# System: LOC_OS07G07230-cb001
# assay.info: thermal shift delta Tm vs DMSO control; higher = stronger stabilization (binding)
# test.parameters: 12.5 µM; protein concentration 2 µM

{"compound": "O=c1cc(-c2ccccc2)oc2c(O)c(O)ccc12 [7,8-Dihydroxyflavone]", "unit.descriptor": "°C", "thermal shift delta Tm": 0.94}
{"compound": "O=C1CCc2c(Oc3ccc4c(c3)[C@@H]3[C@H](O4)[C@H]3c3nc4cc(C(F)(F)F)ccc4[nH]3)ccnc2N1", "unit.descriptor": "°C", "thermal shift delta Tm": -0.15}
{"compound": "O=c1ncn2nc(Sc3ccc(F)cc3F)ccc2c1-c1c(Cl)cccc1Cl", "unit.descriptor": "°C", "thermal shift delta Tm": 0.14}
{"compound": "CS(=O)(=O)N1CCc2c(-c3cnc(N)nc3)nc(N3CCOCC3)nc21", "unit.descriptor": "°C", "thermal shift delta Tm": -0.05}
{"compound": "CC(C)(C)Cn1c(N)nc2ccc(-c3[nH]c(C(C)(C)C)nc3-c3ccc(F)cc3)nc21", "unit.descriptor": "°C", "thermal shift delta Tm": 0.21}
{"compound": "OC1CCC(Nc2ncc3nc(Nc4c(F)cc(F)cc4F)n([C@H]4CCOC4)c3n2)CC1 (some centres undefined)", "unit.descriptor": "°C", "thermal shift delta Tm": 0.44}
{"compound": "O=C1c2ccc(Nc3ccc(F)cc3F)cc2CCc2ccc(OC[C@H](O)CO)cc21 [Skepinone-L]", "unit.descriptor": "°C", "thermal shift delta Tm": -0.05}
{"compound": "Cc1cc(C(=O)NOCCO)c(Nc2ccc(I)cc2F)n(C)c1=O", "unit.descriptor": "°C", "thermal shift delta Tm": 0.15}
{"compound": "COc1cc(OC)cc(-c2cc3cnc(N)nc3nc2NC(=O)NC(C)(C)C)c1", "unit.descriptor": "°C", "thermal shift delta Tm": 1}
{"compound": "N#CCNC(=O)c1ccc(-c2ccnc(Nc3ccc(N4CCOCC4)cc3)n2)cc1", "unit.descriptor": "°C", "thermal shift delta Tm": 0.53}
{"compound": "C[C@H](NC(=O)c1c(N)nn2cccnc12)c1cc2cccc(C#Cc3cnn(C)c3)c2c(=O)n1-c1ccccc1", "unit.descriptor": "°C", "thermal shift delta Tm": 0.62}
{"compound": "O=c1cc(N2CCOCC2)oc2c(-c3ccccc3)cccc12", "unit.descriptor": "°C", "thermal shift delta Tm": -0.39}
{"compound": "N[C@@H]1CCCN(c2c(/C=C3\\SC(=O)NC3=O)cccc2-c2ccccc2)C1", "unit.descriptor": "°C", "thermal shift delta Tm": 0.3}
{"compound": "C[C@H]1CNC(=O)c2cnn3ccc(nc23)N[C@H](C)c2cc(F)ccc2O1", "unit.descriptor": "°C", "thermal shift delta Tm": 0.8}
{"compound": "C#Cc1cccc(Nc2ncnc3cc4c(cc23)OCCOCCOCCO4)c1", "unit.descriptor": "°C", "thermal shift delta Tm": 0.07}
{"compound": "N#Cc1cccc(-c2c[nH]c3ncnc(N4CCOCC4)c23)c1", "unit.descriptor": "°C", "thermal shift delta Tm": 0.58}
{"compound": "CC(C)(C)S(=O)(=O)c1ccc2nccc(Nc3n[nH]c4ccc(F)cc34)c2c1", "unit.descriptor": "°C", "thermal shift delta Tm": 0.92}
{"compound": "CN1CCN(CCOc2cc(OC3CCOCC3)c3c(Nc4c(Cl)ccc5c4OCO5)ncnc3c2)CC1", "unit.descriptor": "°C", "thermal shift delta Tm": 0.13}
{"compound": "CO[C@H]1CC[C@H](N2C(=O)CNc3ncc(-c4ccc(C(C)(C)O)nc4)nc32)CC1", "unit.descriptor": "°C", "thermal shift delta Tm": 0.66}
{"compound": "CC(C)(C)c1ccc(S(=O)(=O)/C=C/C#N)cc1", "unit.descriptor": "°C", "thermal shift delta Tm": -0.18}
{"compound": "O=C(c1cccc(Cl)c1F)N1CCN(Cc2cccc(Nc3nccs3)n2)CC1", "unit.descriptor": "°C", "thermal shift delta Tm": 0}
{"compound": "CC(C)NC(=O)C1CCC(n2c(NC(=O)c3ccc(F)cc3)nc3ccc(CN4CCC(C(C)(C)O)CC4)cc32)CC1 (centres undefined)", "unit.descriptor": "°C", "thermal shift delta Tm": 0.49}
{"compound": "COc1cc(Nc2ncc(F)c(Nc3ccc4c(n3)N(COP(=O)(O)O)C(=O)C(C)(C)O4)n2)cc(OC)c1OC [Fostamatinib (R788)]", "unit.descriptor": "°C", "thermal shift delta Tm": 0.44}
{"compound": "C=CCc1ccc(O)c(-c2ccc(O)c(CC=C)c2)c1", "unit.descriptor": "°C", "thermal shift delta Tm": -0.78}
{"compound": "Cc1ccccc1CN1C2=NCCN2C(=O)C2=C1CCN(Cc1ccccc1)C2", "unit.descriptor": "°C", "thermal shift delta Tm": 0.09}
{"compound": "CCn1c(-c2nonc2N)nc2c(C#CC(C)(C)O)ncc(OC[C@H]3CCCNC3)c21", "unit.descriptor": "°C", "thermal shift delta Tm": 0.32}
{"compound": "COc1cc(C(=O)N2CCC(N3CCN(C)CC3)CC2)ccc1Nc1ncc2c(n1)N(C)c1ccccc1C(=O)N2C", "unit.descriptor": "°C", "thermal shift delta Tm": 0.74}
{"compound": "COc1ccc(CCNCc2ccc(OCc3ccc(Cl)nc3)c(OC)c2)cc1OC", "unit.descriptor": "°C", "thermal shift delta Tm": 0.59}
{"compound": "Cn1cc(-c2ccc3ncc(Cc4ccc5ncccc5c4)n3n2)cn1", "unit.descriptor": "°C", "thermal shift delta Tm": 0.13}
